assay: BSK_3C_TissueFactor: BioMAP Diversity Plus: 3C Assay for Tissue Factor Biomarker Activity (AID 2282997); conditions: BioMAP 3C HUVEC, tissue factor biomarker readout; actives raise or lower the signal
Activity calls are given as the source filed them. Rule for the calls: active = hit-call score of the fitted dose curve at least 0.9, where 1 is the maximum; inactive = score below 0.9.
Respond only with the outcome that fits, drawn from Yes = active, No = inactive

{"TEST_SMILES": "CC(=O)O", "LABEL_CLASS": "No"}
{"TEST_SMILES": "NCCOCCOCCN", "LABEL_CLASS": "No"}
{"TEST_SMILES": "CCCCCCCCCCCCCCOS(=O)(=O)O", "LABEL_CLASS": "No"}
{"TEST_SMILES": "CCc1cc(C2=C(C(=O)O)N(c3ccccc3C(F)(F)F)S(=O)(=O)c3ccccc32)cc2c1OCO2", "LABEL_CLASS": "No"}
{"TEST_SMILES": "C/C=C/C=C/C(=O)O", "LABEL_CLASS": "No"}
{"TEST_SMILES": "Cc1ccc(-c2cc(C(F)(F)F)nn2-c2ccc(S(N)(=O)=O)cc2)cc1", "LABEL_CLASS": "Yes"}

Qu. Answer briefly: the call reported for OCC(CO)n1cnc(-c2ccc(F)cc2)c1-c1ccnc(Oc2ccccc2)n1 in this assay.
Ans. No

Qu. Which outcome was entered for the compound CCCCCCCC(=O)OC in this test?
Ans. No
